- system name: ratOT-R (Rattus norvegicus, UniProt P70536)
- Sequence (P70536 whole entry): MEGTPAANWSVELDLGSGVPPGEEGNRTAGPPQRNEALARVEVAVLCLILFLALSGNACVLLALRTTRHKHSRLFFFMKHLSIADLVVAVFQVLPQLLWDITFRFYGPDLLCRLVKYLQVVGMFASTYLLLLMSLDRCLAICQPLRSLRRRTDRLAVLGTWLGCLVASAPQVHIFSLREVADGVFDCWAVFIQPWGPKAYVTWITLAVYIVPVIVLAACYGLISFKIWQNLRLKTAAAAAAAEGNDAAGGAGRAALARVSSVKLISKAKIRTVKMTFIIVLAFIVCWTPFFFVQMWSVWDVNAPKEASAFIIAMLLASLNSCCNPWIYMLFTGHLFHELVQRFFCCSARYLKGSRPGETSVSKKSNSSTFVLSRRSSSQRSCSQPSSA
- test protocol: Inhibition of IP3 (inositol tri-phosphate)-synthesis in HEK/EBNA-OTR cells
- test conditions: [3H]-inositol, oxytocin 10 nM
# IC50 per entry
Provide only the numeric value, understood in nM.

Example molecules with recorded IC50:
[[record]]
molecule = "Cc1c(Cl)cccc1NC(=O)CN(c1ccc(Br)cc1)S(=O)(=O)c1ccccc1"
system_name = "ratOT-R (Rattus norvegicus, UniProt P70536)"
measure = "IC50"
measured_result = 110

[[record]]
molecule = "Cc1c(Cl)cccc1NC(=O)CN(c1ccc(Cl)cc1)S(=O)(=O)c1ccccc1"
system_name = "ratOT-R (Rattus norvegicus, UniProt P70536)"
measure = "IC50"
measured_result = 320


Value lookup for IC50; key = O=C(CN(c1ccccc1)S(=O)(=O)c1ccccc1)N/N=C1\C(=O)Nc2ccccc21
300

Value lookup for IC50; key = CCOc1ccc(S(=O)(=O)N(CC(=O)N/N=C2/C(=O)Nc3ccccc32)c2ccc(C)cc2)cc1 [Example 5]
13

Value lookup for IC50; key = C/C(=N\NC(=O)CN(c1ccc(Br)cc1)S(=O)(=O)c1ccccc1)c1ccccc1O [drawing 168]
48

* * *

# melting point per entry

[[record]]
molecule = "COc1ccc(S(=O)(=O)N(CC(=O)N/N=C/c2ccccc2O)c2ccc(Cl)cc2)cc1OC [Example 37]"
measure = "melting point"
measured_result = "188 to 189 °C"

[[record]]
molecule = "CCOc1ccc(S(=O)(=O)N(CC(=O)N/N=C2/C(=O)Nc3ccccc32)c2ccccc2)cc1 [Example 2]"
measure = "melting point"
measured_result = "135.5 to 136.5 °C"

[[record]]
molecule = "COc1ccc(S(=O)(=O)N(CC(=O)N/N=C2/C(=O)Nc3ccccc32)c2ccc(Cl)cc2)cc1OC [Example 27]"
measure = "melting point"
measured_result = "132 to 133 °C"

[[record]]
molecule = "CCOc1ccc(S(=O)(=O)N(CC(=O)N/N=C2/C(=O)Nc3ccc(S(=O)(=O)O)cc32)c2ccc(C)cc2)cc1 [Example 1]"
measure = "melting point"
measured_result = "318 to 319 °C (dec.)"

[[record]]
molecule = "Cc1ccc(N(CC(=O)N/N=C2/C(=O)Nc3ccccc32)S(=O)(=O)c2ccc(-c3ccccc3)cc2)cc1 [Example 13]"
measure = "melting point"
measured_result = "246 to 247 °C"


Value lookup for melting point; key = CCOc1ccc(S(=O)(=O)N(CC(=O)N/N=C2/C(=O)Nc3ccc(I)cc32)c2ccccc2)cc1 [Example 4]
233 to 234 °C

* * *

measure: melting point

Value lookup for melting point; key = CCCc1ccc(S(=O)(=O)N(CC(=O)N/N=C2/C(=O)Nc3ccccc32)c2ccc(C)cc2)cc1
198 to 199 °C

Value lookup for melting point; key = CC(C)(C)c1ccc(S(=O)(=O)N(CC(=O)N/N=C2/C(=O)Nc3ccccc32)c2ccc(Cl)cc2)cc1
194 to 195 °C

Value lookup for melting point; key = CCOc1ccc(S(=O)(=O)N(CC(=O)N/N=C(/C)c2ccccc2O)c2ccc(C)cc2)cc1
199 to 200 °C

Value lookup for melting point; key = Cc1ccc(N(CC(=O)N/N=C2/C(=O)Nc3ccccc32)S(=O)(=O)c2cccc3ccccc23)cc1
138 to 139 °C

Value lookup for melting point; key = CCOc1ccc(S(=O)(=O)N(CC(=O)N/N=C\c2ccccc2F)c2ccc(C)cc2)cc1
183 to 184 °C

Value lookup for melting point; key = Cc1ccc(N(CC(=O)N/N=C2/C(=O)Nc3ccccc32)S(=O)(=O)c2ccc(C)cc2)cc1
243 to 244 °C

Value lookup for melting point; key = CCCCOc1ccc(S(=O)(=O)N(CC(=O)N/N=C2/C(=O)Nc3ccccc32)c2ccc(C)cc2)cc1
111 to 112 °C

Value lookup for melting point; key = Cc1ccc(N(CC(=O)N/N=C2/C(=O)Nc3ccccc32)S(=O)(=O)c2ccc(Oc3ccccc3)cc2)cc1
245 to 246 °C

Value lookup for melting point; key = CCOc1ccc(S(=O)(=O)N(CC(=O)N/N=C2/C(=O)N(C)c3ccccc32)c2ccc(C)cc2)cc1
109 to 110 °C

Value lookup for melting point; key = Cc1ccc(N(CC(=O)N/N=C2/C(=O)Nc3ccccc32)S(=O)(=O)c2ccc(Cl)cc2)cc1
234 to 235 °C

Value lookup for melting point; key = COc1ccc(-c2ccc(S(=O)(=O)N(CC(=O)N/N=C3\C(=O)Nc4ccccc43)c3ccc(C)cc3)cc2)cc1
235 to 236 °C

Value lookup for melting point; key = Cc1ccc(N(CC(=O)N/N=C2/C(=O)Nc3ccccc32)S(=O)(=O)c2ccc(C(C)(C)C)cc2)cc1
139 to 140 °C

Value lookup for melting point; key = COc1ccc(S(=O)(=O)N(CC(=O)N/N=C2/C(=O)Nc3ccccc32)c2ccc(C)cc2)cc1
134 to 135 °C

Value lookup for melting point; key = CCOc1ccc(S(=O)(=O)N(CC(=O)N/N=C2/C(=O)Nc3ccc([N+](=O)[O-])cc32)c2ccccc2)cc1
252 to 253 °C

Value lookup for melting point; key = CCOc1ccc(S(=O)(=O)N(CC(=O)N/N=C\c2ccc(N(CC)CC)cc2O)c2ccc(C)cc2)cc1
227 to 228 °C

* * *

- system name: hOT receptor (Homo sapiens, UniProt P30559)
- Sequence (P30559 1-389): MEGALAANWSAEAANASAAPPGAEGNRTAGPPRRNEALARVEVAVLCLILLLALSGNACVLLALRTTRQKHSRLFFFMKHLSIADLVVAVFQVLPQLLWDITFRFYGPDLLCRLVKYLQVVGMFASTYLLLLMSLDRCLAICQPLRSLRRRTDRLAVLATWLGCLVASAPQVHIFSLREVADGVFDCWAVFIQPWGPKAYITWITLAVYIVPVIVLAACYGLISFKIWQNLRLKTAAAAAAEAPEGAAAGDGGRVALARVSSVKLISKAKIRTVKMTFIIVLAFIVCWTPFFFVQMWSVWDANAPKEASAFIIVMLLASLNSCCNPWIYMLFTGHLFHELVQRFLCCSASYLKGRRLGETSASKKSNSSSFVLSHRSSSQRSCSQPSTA
measure: pKi
By convention, pKi is the negative base-10 log of a molar concentration.

Example molecules with recorded pKi:
[[record]]
molecule = "CCOc1ccc(S(=O)(=O)N(CC(=O)N/N=C2/C(=O)Nc3ccccc32)c2ccc(C)cc2)cc1"
system_name = "hOT receptor (Homo sapiens, UniProt P30559)"
measure = "pKi"
measured_result = 7.76

[[record]]
molecule = "CCOc1ccc(S(=O)(=O)N(CC(=O)N2Cc3ccccc3CC2C(N)=O)c2ccc(OC)cc2)cc1 (stereo not drawn)"
system_name = "hOT receptor (Homo sapiens, UniProt P30559)"
measure = "pKi"
measured_result = 6.50


Moving on to the next molecule.
Value lookup for pKi; key = CN(C)CCCNC(=O)CCc1ccc(S(=O)(=O)N(CC(=O)N/N=C2\C(=O)Nc3ccccc32)c2ccc(Cl)cc2)cc1
9.15

* * *

- system name: hOT-R (Homo sapiens, UniProt P30559)
- test protocol: Inhibition of oxytocin mediated Ca2+-mobilization by FLIPR (HEK cells)
- test conditions: fluo-4, OT 40 nM
# IC50 per entry
Respond with the figure and its unit, in that order.

[[record]]
smiles_str = "Cc1ccc(N(CC(=O)N/N=C2\\C(=O)Nc3ccccc32)S(=O)(=O)c2ccc(CCC(N)=O)cc2)cc1"
measure = "IC50"
measured_result = "19 nM"

[[record]]
smiles_str = "CN(C)CCCOc1ccc(S(=O)(=O)N(CC(=O)N/N=C2\\C(=O)Nc3ccccc32)c2ccc(Cl)cc2)cc1"
measure = "IC50"
measured_result = "13.6 nM"

[[record]]
smiles_str = "Cc1c(Cl)cccc1NC(=O)CN(c1ccc(Cl)cc1)S(=O)(=O)c1ccccc1"
measure = "IC50"
measured_result = "443 nM"


Value lookup for IC50; key = CN(C)CCCNC(=O)CCc1ccc(S(=O)(=O)N(CC(=O)N/N=C2\C(=O)Nc3ccccc32)c2ccc(Cl)cc2)cc1
14 nM
